- Target Of Assay: is-octβ2R S114^3.36A mutant (Ixodes scapularis, UniProt A0ACM8E5E8, S114A)
- Assay Name: TGFα shedding assay, mutant S114^3.36A
- Condition Summary: Table S6
- Method: The TGFα shedding assay was performed as previously described ([28]). […] The cells were transfected using lipofectamine 2000 with plasmids encoding alkaline phosphatase–tagged TGFα (AP-TGFα) (2.5 ng/mL), is-octβ2Rs (1 ng/mL), and Gαq/s (0.5 ng/mL). […] The optical density at 405 nm of both plates was measured before and after a 1 h incubation at room temperature using a microplate reader (SpectraMax iD3, Molecular Devices, San Jose, CA, United States). […]
Recorded Endpoint: EC50

INSERT INTO results (smiles_structure, target_of_assay, measured_result) VALUES
  ('CN/C=N/c1ccc(C)cc1C', 'is-octβ2R S114^3.36A mutant (Ixodes scapularis, UniProt A0ACM8E5E8, S114A)', '251 nM');

---

As shown below, each of these compounds has a reported EC50 value.
- Target Of Assay: I. scapularis octβ2R (is-octβ2R) (Ixodes scapularis)
- Assay Name: cell-based
- Assay type: cell-based
- Condition Summary: logEC50, Table S2; wild type; HEK293 cells; mean ± SEM, n = 3
Recorded Endpoint: EC50 (nM)

INSERT INTO measurements (compound, measurement_unit, measured_result) VALUES
  ('CN/C=N/c1ccc(C)cc1C', 'nM', 3.98),
  ('Cc1ccc(/N=C/N(C)/C=N/c2ccc(C)cc2C)c(C)c1', 'nM', 126),
  ('NCC(O)c1ccc(O)cc1 (stereo not shown)', 'nM', 20),
  ('NC[C@H](O)c1ccc(O)c(O)c1', 'nM', 10000);

---

- Target Of Assay: is-octβ2R F304^6.52A mutant (Ixodes scapularis, UniProt A0ACM8E5E8, F304A)
- Assay Name: TGFα shedding assay, mutant F304^6.52A
- Condition Summary: Table S6
pEC50: −log10 of the molar value.
// pEC50 lookup, one value per entry
Recorded Endpoint: pEC50

INSERT INTO results (molecule, target_of_assay, measured_result) VALUES
  ('CN/C=N/c1ccc(C)cc1C', 'is-octβ2R F304^6.52A mutant (Ixodes scapularis, UniProt A0ACM8E5E8, F304A)', 7.20),
  ('NCC(O)c1ccc(O)cc1 (centres unmarked)', 'is-octβ2R F304^6.52A mutant (Ixodes scapularis, UniProt A0ACM8E5E8, F304A)', 6.40);

---

- Target Of Assay: is-octβ2R I62^1.43T mutant (Ixodes scapularis, UniProt A0ACM8E5E8, I41T)
- Sequence (A0ACM8E5E8 1-384 I41T): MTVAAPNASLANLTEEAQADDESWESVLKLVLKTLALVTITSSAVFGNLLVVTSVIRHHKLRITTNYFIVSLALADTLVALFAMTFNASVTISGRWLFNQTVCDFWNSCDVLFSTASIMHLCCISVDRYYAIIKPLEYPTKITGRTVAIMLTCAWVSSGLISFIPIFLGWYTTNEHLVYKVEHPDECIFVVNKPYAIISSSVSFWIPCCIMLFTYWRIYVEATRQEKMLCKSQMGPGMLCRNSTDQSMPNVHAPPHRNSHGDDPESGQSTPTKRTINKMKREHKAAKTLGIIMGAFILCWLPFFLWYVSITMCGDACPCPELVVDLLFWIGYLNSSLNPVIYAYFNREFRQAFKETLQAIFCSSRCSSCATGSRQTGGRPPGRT
- Assay Name: TGFα shedding assay, amitraz-resistant mutant I62^1.43T
- Condition Summary: Table S4
Recorded Endpoint: EC50

INSERT INTO measurements (molecule, recorded_endpoint, measured_result) VALUES
  ('Cc1ccc(/N=C/N(C)/C=N/c2ccc(C)cc2C)c(C)c1', 'EC50', '15.8 nM'),
  ('CN/C=N/c1ccc(C)cc1C', 'EC50', '2 nM'),
  ('NCC(O)c1ccc(O)cc1 (stereo not drawn)', 'EC50', '5.01 nM');

---

- Target Of Assay: is-octβ2R S203^5.46A mutant (Ixodes scapularis, UniProt A0ACM8E5E8, S203A)
- Sequence (A0ACM8E5E8 1-384 S203A): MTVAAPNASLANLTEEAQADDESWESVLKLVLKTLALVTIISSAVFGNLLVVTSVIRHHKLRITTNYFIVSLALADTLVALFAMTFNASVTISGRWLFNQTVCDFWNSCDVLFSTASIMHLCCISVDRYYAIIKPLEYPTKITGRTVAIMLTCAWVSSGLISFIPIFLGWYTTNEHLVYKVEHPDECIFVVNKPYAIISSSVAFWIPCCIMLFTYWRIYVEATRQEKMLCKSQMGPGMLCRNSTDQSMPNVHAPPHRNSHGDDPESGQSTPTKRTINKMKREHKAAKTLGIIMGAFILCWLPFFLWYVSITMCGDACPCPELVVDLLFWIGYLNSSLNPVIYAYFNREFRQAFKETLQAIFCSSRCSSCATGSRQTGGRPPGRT
- Assay Name: TGFα shedding assay, mutant S203^5.46A
- Assay type: cell-based
- Condition Summary: read-out: EC50
pEC50: −log10 of the molar value.
Recorded Endpoint: pEC50

INSERT INTO measurements (smiles_structure, recorded_endpoint, measured_result) VALUES
  ('CN/C=N/c1ccc(C)cc1C', 'pEC50', 8.89);

---

- Target Of Assay: is-octβ2R T60^1.41P mutant (Ixodes scapularis)
- Assay Name: TGFα shedding assay, amitraz-resistant mutant T60^1.41P
- Condition Summary: Table S4
- Experimental: The TGFα shedding assay was performed as previously described ([28]). […] The cells were transfected using lipofectamine 2000 with plasmids encoding alkaline phosphatase–tagged TGFα (AP-TGFα) (2.5 ng/mL), is-octβ2Rs (1 ng/mL), and Gαq/s (0.5 ng/mL). […] The optical density at 405 nm of both plates was measured before and after a 1 h incubation at room temperature using a microplate reader (SpectraMax iD3, Molecular Devices, San Jose, CA, United States). […]
Below, each entry is listed with its recorded EC50.
Recorded Endpoint: EC50 (nM)

INSERT INTO results (compound, measurement_unit, measured_result) VALUES
  ('NCC(O)c1ccc(O)cc1 (stereo not drawn)', 'nM', 10),
  ('Cc1ccc(/N=C/N(C)/C=N/c2ccc(C)cc2C)c(C)c1', 'nM', 31.6),
  ('CN/C=N/c1ccc(C)cc1C', 'nM', 7.94);

---

- Target Of Assay: is-octβ2R F328^7.39A mutant (Ixodes scapularis, UniProt A0ACM8E5E8, F328A)
- Assay Name: TGFα shedding assay, mutant F328^7.39A
- Type: cell-based
- Condition Summary: stated as a range in text, read-out: EC50
Recorded Endpoint: EC50

INSERT INTO measurements (compound, measured_result) VALUES
  ('NCC(O)c1ccc(O)cc1 (stereo not shown)', '~1000 nM');

---

- Target Of Assay: is-octβ2R Y215^5.58H mutant (Ixodes scapularis, UniProt A0ACM8E5E8, Y215H)
- Assay Name: TGFα shedding assay, amitraz-resistant mutant Y215^5.58H
Recorded Endpoint: EC50 (nM)

INSERT INTO measurements (molecule, measured_result) VALUES
  ('NCC(O)c1ccc(O)cc1 (stereo not drawn)', 15.8),
  ('CN/C=N/c1ccc(C)cc1C', 6.31),
  ('Cc1ccc(/N=C/N(C)/C=N/c2ccc(C)cc2C)c(C)c1', 63.1);

---

We begin with a simple list: items and their reported Emax.
- Target Of Assay: I. scapularis octβ2R (is-octβ2R) (Ixodes scapularis, UniProt A0ACM8E5E8)
- Assay Name: cell-based
- Assay type: cell-based
- Condition Summary: HEK293, 1 h, Table S2; wild type; AP-TGFα release; HEK293 cells; mean ± SEM, n = 3
Recorded Endpoint: Emax

INSERT INTO measurements (compound, measured_result) VALUES
  ('NCC(O)c1ccc(O)cc1 (stereo not shown)', '27%'),
  ('NC[C@H](O)c1ccc(O)c(O)c1', '32%'),
  ('Cc1ccc(/N=C/N(C)/C=N/c2ccc(C)cc2C)c(C)c1', '26%'),
  ('CN/C=N/c1ccc(C)cc1C', '24%');

---

- Target Of Assay: I. scapularis octβ2R (is-octβ2R) (Ixodes scapularis, UniProt A0ACM8E5E8)
- Assay Name: cell-based
- Format: cell-based
- Condition Summary: logEC50, Table S6; WT
Recorded Endpoint: EC50

INSERT INTO assay_data (compound, measured_result) VALUES
  ('NCC(O)c1ccc(O)cc1 (stereo not shown) [Octopamine, octopamine]', '25.1 nM');

---

- Target Of Assay: I. scapularis octβ2R (is-octβ2R) (Ixodes scapularis)
- Assay Name: cell-based
- Format: cell-based
- Condition Summary: LogEC50, Table S4; WT
Overview of reported EC50 across a group of compounds:
Recorded Endpoint: EC50 (nM)

INSERT INTO assay_data (compound, target_of_assay, measured_result) VALUES
  ('CN/C=N/c1ccc(C)cc1C', 'I. scapularis octβ2R (is-octβ2R) (Ixodes scapularis)', 7.94),
  ('Cc1ccc(/N=C/N(C)/C=N/c2ccc(C)cc2C)c(C)c1', 'I. scapularis octβ2R (is-octβ2R) (Ixodes scapularis)', 31.6),
  ('NCC(O)c1ccc(O)cc1 (stereo not drawn)', 'I. scapularis octβ2R (is-octβ2R) (Ixodes scapularis)', 10);
